- method-description: Octanol-water partition coefficient, log P of the compound at pH 7.4 by HPLC based shake flask method
- Assay type: physicochemical
result-type: logD

{"compound-structure": "CCOC(=O)N1c2ccc(C(F)(F)F)cc2[C@@H](N(Cc2cc(C(F)(F)F)cc(C(F)(F)F)c2)C(=O)OC)C[C@H]1CC", "logD": 1.05}
{"compound-structure": "COc1cc(F)c(C(C)C)cc1-c1ccc(C(F)(F)F)cc1CN1C(=O)O[C@H](c2cc(C(F)(F)F)cc(C(F)(F)F)c2)[C@@H]1C", "logD": 0.73}
{"compound-structure": "CC1(C)CC[C@]2(C(=O)O)CC[C@]3(C)C(=CC[C@@H]4[C@@]5(C)CC[C@H](OC(=O)c6ccccc6C(=O)O)C(C)(C)[C@@H]5CC[C@]43C)[C@@H]2C1", "logD": 0.49}

(I) CCC(CC)CC1(C(=O)Nc2ccccc2SC(=O)C(C)C)CCCCC1
(II) Cc1cc(C)c2c(c1)[C@@H](N(Cc1cc(C(F)(F)F)cc(C(F)(F)F)c1)c1nnn(C)n1)CCCN2C[C@H]1CC[C@H](C(=O)O)CC1
## Input Quick check, higher logD between I and II ? Refer to your chosen entry by its label in the reply.
## Output I
(I: 0.92, II: 0.51)

###

- method-description: AUC (0 to infinity) in normal fed guinea pig at 30 mg/kg administered via oral gavage by LC-MS/MS analysis
- Assay type: ADME, organism-based, Cavia porcellus
- Parameters: dose 30 mg/kg, route oral, time infinity
- measurement-setup: in vivo
result-type: AUC(0-inf) (ng·h/mL)

(P) CC1(C)CC[C@]2(C(=O)O)CC[C@]3(C)C(=CC[C@@H]4[C@@]5(C)CC[C@H](O)C(C)(C)[C@@H]5CC[C@]43C)[C@@H]2C1
(Q) CC1(C)CC[C@]2(C(=O)O)CC[C@]3(C)C(=CC[C@@H]4[C@@]5(C)CC[C@H](OC(=O)c6ccccc6C(=O)O)C(C)(C)[C@@H]5CC[C@]43C)[C@@H]2C1
## Input Quick check, higher AUC(0-inf) between P and Q ? Refer to your chosen entry by its label in the reply.
## Output Q
(Q: 10900 ng·h/mL, P: 312 ng·h/mL)

###

- method-description: Terminal half life in normal fed guinea pig at 30 mg/kg administered via oral gavage by LC-MS/MS analysis
- Assay type: ADME, organism-based, Cavia porcellus
- measurement-setup: in vivo, read-out: beta t1/2 (converted)
result-type: half-life (h)

(1) CC1(C)CC[C@]2(C(=O)O)CC[C@]3(C)C(=CC[C@@H]4[C@@]5(C)CC[C@H](OC(=O)c6ccccc6C(=O)O)C(C)(C)[C@@H]5CC[C@]43C)[C@@H]2C1
(2) CC1(C)CC[C@]2(C(=O)O)CC[C@]3(C)C(=CC[C@@H]4[C@@]5(C)CC[C@H](O)C(C)(C)[C@@H]5CC[C@]43C)[C@@H]2C1 [OLEANOLIC_ACID]
## Input Quick check, higher half-life between 1 and 2 ? Refer to your chosen entry by its label in the reply.
## Output 1
(1: 18.8 h, 2: 11.7 h)

###

- system-tested: Pancreatic triacylglycerol lipase (Sus scrofa)
- Sequence (P00591 whole entry): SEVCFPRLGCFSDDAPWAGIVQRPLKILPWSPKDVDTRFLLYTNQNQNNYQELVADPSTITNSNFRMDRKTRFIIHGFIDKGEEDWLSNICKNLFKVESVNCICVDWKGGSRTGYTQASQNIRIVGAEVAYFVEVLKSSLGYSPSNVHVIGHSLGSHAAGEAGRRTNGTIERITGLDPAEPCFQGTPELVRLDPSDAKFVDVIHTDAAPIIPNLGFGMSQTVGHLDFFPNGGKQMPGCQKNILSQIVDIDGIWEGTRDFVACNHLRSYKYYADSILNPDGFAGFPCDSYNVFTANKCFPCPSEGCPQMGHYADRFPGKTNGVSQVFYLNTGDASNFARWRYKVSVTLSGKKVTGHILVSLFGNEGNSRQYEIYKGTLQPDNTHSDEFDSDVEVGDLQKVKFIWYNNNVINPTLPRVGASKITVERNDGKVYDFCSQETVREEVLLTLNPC
- method-description: Inhibition of porcine pancreatic lipase using 2,3-dimercaptopropan-1-ol tributyrate as substrate preincubated for 5 mins followed by substrate addition measured after 30 mins by colorimetric assay
result-type: IC50 (µM)
Enter your answer as a number in µM; do not include the unit.

## Input Param item = "CC1(C)CC[C@]2(C(=O)O)CC[C@]3(C)C(=CC[C@@H]4[C@@]5(C)CC[C@H](O)C(C)(C)[C@@H]5CC[C@]43C)[C@@H]2C1" ; retrieve measured IC50.
## Output 182

###

- system-tested: Cholesteryl ester transfer protein (Homo sapiens)
- Sequence (P11597 whole entry): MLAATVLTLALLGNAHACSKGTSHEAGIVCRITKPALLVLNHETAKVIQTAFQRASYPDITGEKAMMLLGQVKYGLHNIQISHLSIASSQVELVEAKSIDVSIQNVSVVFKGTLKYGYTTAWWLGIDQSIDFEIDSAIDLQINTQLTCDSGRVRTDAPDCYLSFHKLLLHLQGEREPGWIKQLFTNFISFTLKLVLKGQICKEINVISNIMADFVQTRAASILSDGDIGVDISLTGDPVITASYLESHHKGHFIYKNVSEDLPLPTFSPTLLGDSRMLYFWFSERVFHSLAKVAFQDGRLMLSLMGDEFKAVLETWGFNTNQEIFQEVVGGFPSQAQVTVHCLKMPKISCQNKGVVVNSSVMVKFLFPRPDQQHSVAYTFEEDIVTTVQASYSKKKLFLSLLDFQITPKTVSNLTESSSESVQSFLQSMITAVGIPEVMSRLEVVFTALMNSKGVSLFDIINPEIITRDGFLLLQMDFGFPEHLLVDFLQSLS
- method-description: Inhibition of recombinant human CETP after 3 hrs using fluorescent cholesteryl containing HDL after 3 hrs by fluorescence assay
- measurement-setup: read-out: IC50
pIC50: −log10 of the molar value.
result-type: pIC50

{"compound": "C=C(C)[C@@H]1CC[C@]2(C(=O)O)CC[C@]3(C)[C@H](CC[C@@H]4[C@@]5(C)CC[C@H](OC(=O)CCCC(=O)O)C(C)(C)[C@@H]5CC[C@]43C)[C@@H]12", "system-tested": "Cholesteryl ester transfer protein (Homo sapiens)", "pIC50": 4.42}
{"compound": "CC1(C)CC[C@]2(C(=O)O)CC[C@]3(C)C(=CC[C@@H]4[C@@]5(C)CC[C@H](OC(=O)CCC(=O)O)C(C)(C)[C@@H]5CC[C@]43C)[C@@H]2C1 [OLEANOLIC ACID 3-O-SUCCINATE]", "system-tested": "Cholesteryl ester transfer protein (Homo sapiens)", "pIC50": 5.37}
{"compound": "CC1(C)CC[C@]2(C(=O)O)CC[C@]3(C)C(=CC[C@@H]4[C@@]5(C)CC[C@H](OC(=O)c6ccccc6C(=O)O)C(C)(C)[C@@H]5CC[C@]43C)[C@@H]2C1", "system-tested": "Cholesteryl ester transfer protein (Homo sapiens)", "pIC50": 5.64}
{"compound": "CC1(C)CC[C@]2(C(=O)OCC(=O)O)CC[C@]3(C)C(=CC[C@@H]4[C@@]5(C)CC[C@H](OC(=O)CCCC(=O)O)C(C)(C)[C@@H]5CC[C@]43C)[C@@H]2C1", "system-tested": "Cholesteryl ester transfer protein (Homo sapiens)", "pIC50": 4.41}
{"compound": "CC1(C)CC[C@]2(C(=O)O)CC[C@]3(C)C(=CC[C@@H]4[C@@]5(C)CC[C@H](OC(=O)CCC(=O)NCCS(=O)(=O)O)C(C)(C)[C@@H]5CC[C@]43C)[C@@H]2C1", "system-tested": "Cholesteryl ester transfer protein (Homo sapiens)", "pIC50": 4.64}

(I) CC1(C)CC[C@]2(C(=O)O)CC[C@]3(C)C(=CC[C@@H]4[C@@]5(C)CC[C@H](OC(=O)CCCCC(=O)O)C(C)(C)[C@@H]5CC[C@]43C)[C@@H]2C1
(II) C[C@H]1[C@H](C)CC[C@]2(C(=O)O)CC[C@]3(C)C(=CC[C@@H]4[C@@]5(C)CC[C@H](OC(=O)CCCC(=O)O)C(C)(C)[C@@H]5CC[C@]43C)[C@H]12
## Input Quick check, higher pIC50 between I and II ? Refer to your chosen entry by its label in the reply.
## Output II
(II: 5.47, I: 5.15)

(1) CC1(C)CC[C@]2(C(=O)O)CC[C@]3(C)C(=C2C1)CC[C@@H]1[C@@]2(C)CC[C@H](OC(=O)CCCC(=O)O)C(C)(C)[C@@H]2CC[C@]13C
(2) CC1(C)CC[C@]2(C(=O)O)CC[C@]3(C)C(=CC[C@@H]4[C@@]5(C)CC[C@H](OC(=O)CCN6CCOCC6)C(C)(C)[C@@H]5CC[C@]43C)[C@@H]2C1
(3) CC1(C)CC[C@]2(C(=O)O)CC[C@]3(C)C(=CC[C@@H]4[C@@]5(C)CC[C@H](OC(=O)CCCC(=O)O)C(C)(C)[C@@H]5CC[C@]43C)[C@@H]2C1
## Input Please put the entries in order of rising pIC50. Show the ranking through the labels, in the order asked for.
## Output 2, 1, 3

Cited source for all entries: ChEMBL document CHEMBL4130378
